System: SK-MEL-28
Assay: NCI tumour cell line growth inhibition, 48 h
Calls of active or inactive are those of the source. No stated cut-off is given here; in the data, active = GI50 up to about 1.1 µM and inactive = higher.
Labels: 1 (yes) = active, 0 (no) = inactive

MOLECULE	STUDY_SYSTEM	CLASS_LABEL
COC(=O)CCn1cnc2c(SC)ncnc21	SK-MEL-28	0 (no)
O=C(NNCc1ccccc1O)c1ccccc1O	SK-MEL-28	0 (no)
Oc1ccnc(SCc2ccc(Cl)cc2)n1	SK-MEL-28	0 (no)
CC(NC(=O)C(N)CC(=O)O)NC(=O)N1CCCC1 (stereo unspecified)	SK-MEL-28	0 (no)
Nn1c(CCCCCCCCc2nnc(-c3c(O)ccc4ccccc34)n2N)nnc1-c1c(O)ccc2ccccc12	SK-MEL-28	0 (no)
CCSc1nc(=S)n(-c2ccccc2)c(C)c1C(C)=O	SK-MEL-28	0 (no)
O=C(Nc1ccc(Cl)c(Cl)c1)C(=O)C(C(=O)c1ccccc1F)C1OC(=O)c2ccccc21 (stereo unspecified)	SK-MEL-28	0 (no)
NCC(Cl)C(O)c1c[nH]c(N)n1 (stereo unspecified)	SK-MEL-28	0 (no)
COC(=O)c1cc(NC(=O)Cn2c3ccccc3c3ccccc32)cn1C	SK-MEL-28	0 (no)
Cn1c(=O)n(-c2c3ccccc3c(Cl)c3ccccc23)n(C(C)(C)C)c1=O	SK-MEL-28	0 (no)
O=S(=O)(N1CCCCN(S(=O)(=O)C(F)(F)F)CCCN(S(=O)(=O)C(F)(F)F)CCCCN(S(=O)(=O)C(F)(F)F)CCCN(S(=O)(=O)C(F)(F)F)CCCCN(S(=O)(=O)C(F)(F)F)CCCN(S(=O)(=O)C(F)(F)F)CCCCN(S(=O)(=O)C(F)(F)F)CCC1)C(F)(F)F	SK-MEL-28	0 (no)
O=[N+]([O-])C(=C1Nc2ccccc2N1)C(Cl)=C(Cl)Cl	SK-MEL-28	0 (no)
Cc1cccc(N2C(=O)C(=O)C(c3nc4ccccc4s3)C(=O)C2=O)c1C	SK-MEL-28	0 (no)
C[C@]12CC[C@H](O)C[C@H]1CC[C@@H]1[C@@H]2CC[C@]2(C)[C@@H](C3=CC(=O)OC3)[C@@H](O)C[C@]12O	SK-MEL-28	0 (no)
NS(=O)(=O)c1ccc(NC2=CC(=O)C(=O)c3ccccc32)cc1	SK-MEL-28	0 (no)
O=C(O)CN1CCNCCN(CP(=O)(O)O)CC1	SK-MEL-28	0 (no)
CCCOP(=S)(N1CC1)N1CC1	SK-MEL-28	0 (no)
S=C=NCCc1ccccc1 [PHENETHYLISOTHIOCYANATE]	SK-MEL-28	1 (yes)
Nc1nc(-c2cc(-c3cccc4ccccc34)nc(N)n2)cc(-c2cccc3ccccc23)n1	SK-MEL-28	0 (no)
Cn1c(-c2ccccc2)cc(-c2ccc3c(c2)OCO3)c1-c1cccs1	SK-MEL-28	0 (no)
Cn1/c(=N\c2ccc(Cl)cc2)sc2ccccc21	SK-MEL-28	0 (no)

====

Tested on: OVCAR-8
Test: NCI tumour cell line growth inhibition, 48 h
Activity calls are given as the source filed them. No stated cut-off is given here; in the data, active = GI50 up to about 1.1 µM and inactive = higher.

MOLECULE	GI50
C/C(=N\O)c1cccc(Nc2c3ccccc3nc3occc23)c1	13.7 µM (inactive)
O=c1oc2ccccc2c(Nc2ccc3c(c2)Sc2ccccc2O3)c1[N+](=O)[O-]	30.8 µM (inactive)
O=C(O/N=c1/ccc(=O)/c(=N\OC(=O)c2ccccc2)c1=O)c1ccccc1	> 100 µM (inactive)
CC1CC(c2ccccc2)=Nc2ccccc2S1 (stereo unspecified)	> 100 µM (inactive)
CC(C)(Cl)C(Br)CC/C(=C/CCl)CBr.CC(C)(Cl)C(Br)CC/C(=C\CCl)CBr (stereo unspecified)	2.06 µM (inactive)
O=C1OC(c2ccccc2)=N/C1=C/NC(Cc1ccccc1)C(=O)O (stereo unspecified)	> 100 µM (inactive)
COC(=O)[C@]1(c2cc3ccccc3n2S(=O)(=O)c2ccccc2)CC2CN(C(C)=O)C1CC2=O (stereo partly specified)	3.43 µM (inactive)
Oc1cc(Br)cc2cccnc12	1.29 µM (inactive)
COc1cc(C(=O)Nc2nnc(S(N)(=O)=O)s2)cc(OC)c1OC	> 100 µM (inactive)
ClC/C=C/COC1CCCCO1 (stereo unspecified)	57.5 µM (inactive)
Oc1[nH]c(NCc2ccc(Cl)cc2)nc2ncnc1-2	> 100 µM (inactive)

====

Test system: HOP-18
Assay: NCI tumour cell line growth inhibition, 48 h
Active and inactive are the calls of the source. Cut-off read from the data, not from the text of the source: active = GI50 up to about 1.1 µM and inactive = higher.
Labels: active, inactive

COMPOUND	STUDY_SYSTEM	CLASS_LABEL
CCOC(=O)/C(ON)=C(/CC/C(C(=O)OC)=C(\ON)C(=O)OCC)C(=O)OC	HOP-18	inactive
COc1cc2cc3c4cc(OC)c(OC)cc4cc[n+]3c(C)c2cc1OC.O=C([O-])CS(=O)(=O)O	HOP-18	inactive
CCOC(=O)C1(C#N)C(c2ccccc2)CC(O)(c2ccc(OC)cc2)C(C(=O)c2ccc(OC)cc2)C1c1ccccc1 (stereo unspecified)	HOP-18	inactive
NC1=C(O)c2cccc3cccc(c23)C1=O	HOP-18	inactive
CCN(CC)CC(=O)O[C@]1(CC)C(=O)OCc2c1cc1n(c2=O)Cc2cc3ccccc3nc2-1	HOP-18	active
N#CC(C#N)=CSc1ccccc1	HOP-18	inactive

====

As shown below, each of these molecules has a reported GI50 value.
System: MDA-MB-435
Experiment: NCI tumour cell line growth inhibition, 48 h
Active and inactive are the calls of the source. Cut-off read from the data, not from the text of the source: active = GI50 up to about 1.1 µM and inactive = higher.

MOLECULE	STUDY_SYSTEM	GI50
O=C(NNCc1ccccc1O)c1ccccc1O	MDA-MB-435	3.06 µM (inactive)
O=C(O)CNC(=O)C1NC(C(F)(F)F)(C(F)(F)F)OC1(C(F)(F)F)C(F)(F)F (stereo not given)	MDA-MB-435	> 100 µM (inactive)
CCOc1ccc(C2Oc3c(cccc3OC)C=C2[N+](=O)[O-])cc1OCC (stereo not given)	MDA-MB-435	2.82 µM (inactive)
CCCCNC(=S)Nc1nc(C(=O)NNC(=S)NCc2ccccc2)cs1	MDA-MB-435	35.8 µM (inactive)
O=C(C(=C(I)I)c1ccccc1)c1ccccc1	MDA-MB-435	31.1 µM (inactive)
CC(=O)Oc1cc(C)c(OC(C)=O)c2c1[C@H]1CC[C@]3(C)[C@@H](OC(C)=O)CC[C@H]3[C@@H]1CC2	MDA-MB-435	14.4 µM (inactive)
CCOP(=O)(OCC)[C@H](O)c1ccsc1	MDA-MB-435	> 100 µM (inactive)
S=C(NC/C(Br)=C/Br)Nc1cccc2ccccc12	MDA-MB-435	34 µM (inactive)
O=C1CSc2ccnc(=O)n21	MDA-MB-435	> 100 µM (inactive)
COC(=O)N[C@@H]1C[C@H]2CC[C@]1(O[Si](C(C)C)(C(C)C)C(C)C)C(=O)C2	MDA-MB-435	17.9 µM (inactive)

====

System: TK-10
Assay: NCI tumour cell line growth inhibition, 48 h
Calls of active or inactive are those of the source. No stated cut-off is given here; in the data, active = GI50 up to about 1.1 µM and inactive = higher. Where a SMILES comes first, the peptide text is derived from it. [ ]: non-standard residue; d: D form. The star is where a group is joined. Phe(4-NO2) = N[CH](Cc1ccc([N+](=O)[O-])cc1)C(=O)O; Boc = CC(C)(C)OC(=O)*
MEASURED_ENDPOINT: GI50

COMPOUND	READOUT_VALUE
C=CC(=O)N1C/C(=C\c2ccc(OC)cc2)C(=O)/C(=C/c2ccc(OC)cc2)C1	3.66 µM (inactive)
O=C1O[C@H](c2ccccc2)[C@@H]2CC3(CCN12)OCCO3	> 100 µM (inactive)
CC1(/C=C/CCSc2ccccc2)CC(=O)C2CC1C2(C)C (stereo not given)	14.9 µM (inactive)
CC(CCCOC(c1ccccc1)(c1ccccc1)c1ccccc1)OC(=O)Nc1ccccc1 (stereo not given)	20.4 µM (inactive)
COC(=O)N1C[C@@]2(C=CC3(CC2)OCCO3)c2ccccc21	> 100 µM (inactive)
COc1ccc2nc(N/N=C/c3ccc(C)s3)cc(C)c2c1	21.6 µM (inactive)
N#Cc1cc([N+](=O)[O-])ccc1NC(=O)/C(=N\NC(=O)c1ccncc1)C(c1cnc2ccc([N+](=O)[O-])cc2n1)[N+](=O)[O-] (stereo not given)	14.2 µM (inactive)
COc1ccc(/C(C#N)=C(/N)SCc2ccccc2Cl)cc1	32.1 µM (inactive)
C=CCCON(C(=O)OC(C)(C)C)c1ccccc1	> 100 µM (inactive)
O=[N+]([O-])C(=C1Nc2ccccc2N1)C(Cl)=C(Cl)Cl	> 100 µM (inactive)
COc1cc(Nc2nc3ccccc3nc2C(=O)O)cc(OC)c1OC	16.3 µM (inactive)
CCOC(=O)CCC(NC(=O)C(Cc1ccc([N+](=O)[O-])cc1)NC(=O)OC(C)(C)C)C(=O)NC(CCC(=O)OCC)C(=O)OCC (stereo not given) (Boc-[Phe(4-NO2)]-Glu(OEt)-Glu(OEt)-OEt; configuration not given here)	15.5 µM (inactive)
CC1(C)OC2C(CO)OC(n3ccc(=O)[nH]c3=O)C2O1 (stereo not given)	> 100 µM (inactive)
CCOC(=O)/C(ON)=C(/CC/C(C(=O)OC)=C(\ON)C(=O)OCC)C(=O)OC	> 100 µM (inactive)
NC1=C(O)c2cccc3cccc(c23)C1=O	> 100 µM (inactive)
O=c1oc2ccc([N+](=O)[O-])cc2c(Nc2ccc3c(c2)S(=O)(=O)c2ccccc2O3)c1[N+](=O)[O-]	> 100 µM (inactive)
O=C1OC(OC/C(Br)=C(/Br)COC2OC(=O)C(Cl)=C2Cl)C(Cl)=C1Cl (stereo not given)	13.5 µM (inactive)
Cc1cc(CN2CCCCC2)c(O)c(CN2CCCCC2)c1	> 100 µM (inactive)
COc1ccc2[nH]c3c(c2c1)CC(=O)N1CCC[C@H](C1)CC31OCCCO1	> 100 µM (inactive)
Nc1ccc(SC23CC4CC(CC(C4)C2)C3)cc1	> 100 µM (inactive)
